The origin of these recorded values is ChEMBL document CHEMBL4020725.

Biological target: Adenosine receptor A2b (Homo sapiens, UniProt P29275)
Sequence (P29275 whole entry): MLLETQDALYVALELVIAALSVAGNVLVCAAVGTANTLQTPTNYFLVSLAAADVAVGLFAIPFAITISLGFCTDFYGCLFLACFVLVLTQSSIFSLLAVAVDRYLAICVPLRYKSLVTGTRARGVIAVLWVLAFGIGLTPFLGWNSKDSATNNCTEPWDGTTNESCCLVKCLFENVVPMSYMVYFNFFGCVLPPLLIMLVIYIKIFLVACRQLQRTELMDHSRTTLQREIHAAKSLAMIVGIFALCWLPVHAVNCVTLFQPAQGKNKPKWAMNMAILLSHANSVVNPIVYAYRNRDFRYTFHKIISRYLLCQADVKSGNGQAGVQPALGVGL
Assay: Displacement of [3H]-MRS-1754 from human adenosine A2B receptor expressed in HEK293 cell membranes after 90 mins
Details: hek293
attribute-measured: Ki

>>> print(df.to_string())
                               entry_smiles         result
0  CCCn1c(=O)c2[nH]c(-c3cc(OCC#Cc4ccc(OC(F)(F)F)cc4)n(C)n3)nc2n(CCC)c1=O  Nd(Insoluble)
1  CCCn1c(=O)c2[nH]c(-c3ccc(OCC#Cc4ccc(C(F)(F)F)cc4)cc3)nc2n(CCC)c1=O  Nd(Insoluble)
2  CCCn1c(=O)c2[nH]c(-c3ccc(OCC#Cc4ccc(F)cc4)cc3)nc2n(CCC)c1=O  Nd(Insoluble)
3  CCCn1c(=O)c2[nH]c(-c3cc(OCC#Cc4ccc(C(F)(F)F)cc4)no3)nc2n(CCC)c1=O  Nd(Insoluble)
4  CCCn1c(=O)c2[nH]c(-c3cc(OCC#Cc4cccc(C(F)(F)F)c4)n(C)n3)nc2n(CCC)c1=O  Nd(Insoluble)
5  CCCn1c(=O)c2[nH]c(-c3ccc(OCC#Cc4cccc(OC(F)(F)F)c4)cc3)nc2n(CCC)c1=O  Nd(Insoluble)
